- assayTarget: telomerase (Homo sapiens)
- Construct: cells, tissues, or preferably a cellular extract or other preparation containing telomerase; endogenous in cells
- testSummary: Telomerase inhibition (IC50) with cellular extract or other preparation containing telomerase
- Format: biochemical
- measurementSetup: approximate values; read-out: IC50
propertyLabel: IC50 (µM)

Some solved entries appear below for comparison.
O=C(NNC(=S)Nc1cccc(Cl)c1Cl)c1sc2cc(-c3ccccc3)ccc2c1Cl [Compound XXVI]; 6
Cc1ccc(Sc2ccccc2NC(=S)NNC(=O)c2cc3c(Cl)cccc3s2)cc1 [Compound XV]; 9
O=C(NNC(=S)Nc1cc(C(F)(F)F)cc(C(F)(F)F)c1)c1sc2ccc(Cl)c(Cl)c2c1Cl [Compound XXXVI]; 8
O=C(NNC(=S)Nc1ccc(Cl)cc1)c1sc2ccc(Cl)c(Cl)c2c1Cl [Compound XLI]; 8
O=C(NNC(=S)Nc1cc(Br)ccc1Br)c1sc2ccc(Cl)c(Cl)c2c1Cl [Compound XXXV]; 6
O=C(NNC(=S)Nc1ccc(Cl)cc1Cl)c1sc2ccc(Cl)c(Cl)c2c1Cl [Compound XXXII]; 7

[a] Cc1ccc(Sc2ccccc2NC(=S)NNC(=O)c2cc3cc(NC(=S)Nc4cccc(C)c4)ccc3s2)cc1 [Compound V]
[b] O=C(NNC(=S)Nc1c(Cl)cc(Cl)cc1Cl)c1sc2ccc(Cl)c(Cl)c2c1Cl [Compound XL]
[c] CSc1ccc(NC(=S)NNC(=O)c2cc3cc(NC(=S)Nc4cccc(C)c4)ccc3s2)cc1 [Compound VI]
Asked: Reorder: IC50, max to min. Arrange the labels as the request states and list them.
Given back: b, a, c
(b: 14 µM, a: 9.7 µM, c: 6.4 µM)

###

- assayTarget: telomerase (Homo sapiens)
- Construct: cells, tissues, or preferably a cellular extract or other preparation containing telomerase; endogenous in cells
- testSummary: Telomerase inhibition (IC50) with cellular extract or other preparation containing telomerase
- Type: biochemical
- measurementSetup: IC50, approximate values
propertyLabel: IC50 (µM)
Please reply with the bare figure in µM and do not write the unit itself.

Considering "O=C(NNC(=S)Nc1cc(Cl)c(Cl)cc1Cl)c1cc2cccc(F)c2s1" , its IC50 with telomerase (Homo sapiens) was recorded as 7

###

- assayTarget: telomerase (Homo sapiens)
- Construct: cells, tissues, or preferably a cellular extract or other preparation containing telomerase; endogenous in cells
- testSummary: Telomerase inhibition (IC50) with cellular extract or other preparation containing telomerase
- Type: biochemical
- measurementSetup: approximate values; read-out: IC50
propertyLabel: IC50 (µM)

COc1ccc2c(Cl)c(C(=O)NNC(=S)Nc3ccc(Cl)c(Cl)c3Cl)sc2c1; 8

[I] O=C(NNC(=S)Nc1cc(Cl)ccc1Cl)c1sc2cc(-c3ccccc3)ccc2c1Cl
[II] COc1ccc2c(Cl)c(C(=O)NNC(=S)Nc3cc(Cl)c(Cl)cc3Cl)sc2c1Cl
[III] COc1ccc2c(Cl)c(C(=O)NNC(=S)Nc3cc(Cl)c(Cl)c(Cl)c3Cl)sc2c1Cl
[IV] Cc1cccc(NC(=S)Nc2ccc3sc(C(=O)NNC(=S)Nc4cc(C(F)(F)F)cc(C(F)(F)F)c4)cc3c2)c1
Asked: Order the entries by their reported IC50, beginning at the minimum. Write the labels out in the order the request specifies.
Given back: I, II, III, IV

###

- assayTarget: telomerase (Homo sapiens, UniProt O14746)
- Construct: cells, tissues, or preferably a cellular extract or other preparation containing telomerase; endogenous in cells
- Sequence (O14746 whole entry): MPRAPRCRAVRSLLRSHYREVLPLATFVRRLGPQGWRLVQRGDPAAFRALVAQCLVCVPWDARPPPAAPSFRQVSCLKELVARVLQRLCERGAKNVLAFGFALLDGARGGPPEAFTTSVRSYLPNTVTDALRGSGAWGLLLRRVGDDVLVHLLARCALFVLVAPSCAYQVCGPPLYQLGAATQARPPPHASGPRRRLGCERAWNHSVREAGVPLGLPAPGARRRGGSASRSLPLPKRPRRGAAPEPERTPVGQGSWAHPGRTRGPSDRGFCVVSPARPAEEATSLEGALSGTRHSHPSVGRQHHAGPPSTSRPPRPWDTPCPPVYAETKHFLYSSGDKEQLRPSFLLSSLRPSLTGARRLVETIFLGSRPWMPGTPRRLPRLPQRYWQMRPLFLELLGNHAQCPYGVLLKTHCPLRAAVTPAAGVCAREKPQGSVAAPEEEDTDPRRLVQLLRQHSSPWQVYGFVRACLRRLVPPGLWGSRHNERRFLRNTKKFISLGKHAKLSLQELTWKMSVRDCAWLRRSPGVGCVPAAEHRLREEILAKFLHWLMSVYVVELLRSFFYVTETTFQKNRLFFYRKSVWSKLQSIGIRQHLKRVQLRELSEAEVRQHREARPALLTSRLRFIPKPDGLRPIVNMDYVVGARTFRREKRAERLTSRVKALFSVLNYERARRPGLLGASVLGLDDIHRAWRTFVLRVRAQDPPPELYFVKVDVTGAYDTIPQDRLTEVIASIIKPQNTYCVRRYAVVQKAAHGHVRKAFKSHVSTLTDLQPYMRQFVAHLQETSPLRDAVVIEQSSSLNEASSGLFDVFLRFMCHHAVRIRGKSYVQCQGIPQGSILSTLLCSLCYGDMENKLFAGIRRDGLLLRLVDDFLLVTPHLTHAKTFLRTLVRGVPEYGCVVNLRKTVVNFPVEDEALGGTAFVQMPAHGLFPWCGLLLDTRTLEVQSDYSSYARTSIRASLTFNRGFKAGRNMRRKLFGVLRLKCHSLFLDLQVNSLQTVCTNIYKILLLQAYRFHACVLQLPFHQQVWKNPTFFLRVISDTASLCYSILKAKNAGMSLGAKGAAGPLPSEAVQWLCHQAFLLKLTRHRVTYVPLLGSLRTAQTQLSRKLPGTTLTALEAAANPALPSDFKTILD
- Sequence (O60832 whole entry partner): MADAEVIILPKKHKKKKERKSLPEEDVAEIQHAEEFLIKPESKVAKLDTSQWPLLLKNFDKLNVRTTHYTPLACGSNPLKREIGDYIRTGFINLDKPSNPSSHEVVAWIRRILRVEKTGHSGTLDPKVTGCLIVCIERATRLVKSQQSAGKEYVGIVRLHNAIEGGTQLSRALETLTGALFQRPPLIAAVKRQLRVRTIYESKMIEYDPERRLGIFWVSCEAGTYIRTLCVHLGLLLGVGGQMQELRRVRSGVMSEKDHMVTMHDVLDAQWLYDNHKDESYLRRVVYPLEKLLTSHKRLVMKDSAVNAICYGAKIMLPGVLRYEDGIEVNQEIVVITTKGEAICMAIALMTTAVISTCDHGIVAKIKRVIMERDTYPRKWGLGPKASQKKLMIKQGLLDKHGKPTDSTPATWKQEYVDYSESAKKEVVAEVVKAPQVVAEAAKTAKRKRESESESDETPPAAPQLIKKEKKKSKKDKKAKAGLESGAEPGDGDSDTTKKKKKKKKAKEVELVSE
- Sequence (Q9NPE3 whole entry partner): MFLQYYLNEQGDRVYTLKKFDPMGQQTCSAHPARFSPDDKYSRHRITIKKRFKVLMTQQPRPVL
- Sequence (Q9NX24 whole entry partner): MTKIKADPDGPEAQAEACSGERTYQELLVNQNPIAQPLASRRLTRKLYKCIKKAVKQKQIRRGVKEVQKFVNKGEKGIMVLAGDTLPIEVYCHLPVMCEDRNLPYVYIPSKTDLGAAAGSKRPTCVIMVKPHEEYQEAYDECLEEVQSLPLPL
- Sequence (Q9NY12 whole entry partner): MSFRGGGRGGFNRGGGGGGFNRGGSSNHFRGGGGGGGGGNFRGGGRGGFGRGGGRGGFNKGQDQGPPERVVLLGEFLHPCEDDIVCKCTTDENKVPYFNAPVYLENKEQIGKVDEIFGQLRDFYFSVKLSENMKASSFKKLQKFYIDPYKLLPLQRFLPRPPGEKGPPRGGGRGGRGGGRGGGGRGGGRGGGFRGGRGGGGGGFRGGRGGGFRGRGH
- testSummary: Telomerase inhibition (IC50) with cellular extract or other preparation containing telomerase
- Assay type: biochemical
- measurementSetup: approximate values; read-out: IC50
- Experimental: One method used to identify compounds of the invention that inhibit telomerase activity involves placing cells, tissues, or preferably a cellular extract or other preparation containing telomerase in contact with several known concentrations of a test compound in a buffer compatible with telomerase activity. […] With the above-described methods, IC50 values for several of the compounds of the present invention were determined. […]
propertyLabel: IC50 (µM)

O=C(NNC(=S)Nc1cc(Cl)c(Cl)cc1Cl)c1sc2cc(-c3ccccc3)ccc2c1Cl; 8
O=C(NNC(=S)Nc1cc(Br)ccc1Br)c1cc2c(Cl)cccc2s1; 9
COc1ccc2c(Cl)c(C(=O)NNC(=S)Nc3cc(Cl)c(Cl)cc3Cl)sc2c1; 9
O=C(NNC(=S)Nc1cc(Br)ccc1Br)c1sc2cc(-c3ccccc3)ccc2c1Cl; 9
O=C(NNC(=S)Nc1c(Cl)cc(Cl)cc1Cl)c1sc2cc(-c3ccccc3)ccc2c1Cl; 7
O=C(NNC(=S)Nc1ccc(Cl)c(Cl)c1Cl)c1sc2ccc(Cl)c(Cl)c2c1Cl; 6
O=C(NNC(=S)Nc1ccc(Cl)c(Cl)c1Cl)c1cc2c(Cl)cccc2s1; 9
O=C(NNC(=S)Nc1cc(Cl)c(Cl)c(Cl)c1Cl)c1sc2ccccc2c1Cl; 8

###

- assayTarget: telomerase (Homo sapiens)
- Construct: cells, tissues, or preferably a cellular extract or other preparation containing telomerase; endogenous in cells
- testSummary: Telomerase inhibition (IC50) with cellular extract or other preparation containing telomerase
- Type: biochemical
- measurementSetup: approximate values; read-out: IC50
pIC50: −log10 of the molar value.
propertyLabel: pIC50

[a] O=C(NNC(=S)Nc1cc(Cl)ccc1Cl)c1cc2ccccc2s1
[b] Cc1ccc(NC(=S)Nc2ccc3sc(C(=O)NNC(=S)Nc4cc(Cl)ccc4Cl)cc3c2)cc1
Asked: Lab log: flag the item ( a or b ) with the smaller pIC50 figure. Bench note: the answer is the label of the chosen record.
Given back: a
(a: 5.00, b: 5.22)

Data provenance: patent US5863936A
